The following compounds are listed with their measured log10 IC50 values.
Target: Renin (Macaca fascicularis, UniProt Q6DLS0)
Assay: Inhibition of renin in cynomolgus monkey plasma
Form field - Quantity: IC50; Unit: nM; Scale: log10

These solved cases illustrate the format of a correct answer.
COCCCOc1ccccc1N1CCN(CC(N)C(O)CC(C(=O)NCC(C)(C)C(N)=O)C(C)C)C(C)(C)C1=O (racemic): 2.94
CC(C)[C@H](C[C@H](O)[C@@H](N)CN1CC(=O)N(c2c(F)cccc2F)CC1(C)C)C(=O)NCC(C)(C)C(N)=O: 1.08
COCCCOc1ccccc1N1CC(C)(C)N(C[C@H](N)[C@@H](O)C[C@H](C(=O)NCC(C)(C)C(N)=O)C(C)C)CC1=O: 0.72
CC(C)[C@H](C[C@H](O)[C@@H](N)CN1CC(=O)N(c2cc(F)ccc2F)CC1(C)C)C(=O)NCC(C)(C)C(N)=O: 1.48
CC[C@H](C)CNC(=O)[C@@H](C[C@H](O)[C@@H](N)CN1CC(=O)N(c2cc(F)ccc2Cl)CC1(C)C)C(C)C: 0.90

Note to self: log10 IC50 recorded for CCCCNC(=O)[C@@H](C[C@H](O)[C@@H](N)CN1CC(=O)N(c2ccccc2Cl)CC1(C)C)C(C)C was 0.95

So for COCCCOc1ccccc1N1CC(C)(C)N(CC(N)C(O)CC(C(=O)NCC(C)(C)C(N)=O)C(C)C)CC1=O (racemic) , the logged log10 IC50 turned out to be 1.00

---

Assay: AUC (0 to 24 hrs) in cynomolgus monkey at 10 mg/kg, po
Conditions: plasma
endpoint: AUC(0-t) at 24 h (ng·h/mL)
Give just the number in ng·h/mL; leave the unit off.

AUC(0-t) at 24 h in this record for CCCCNC(=O)[C@@H](C[C@H](O)[C@@H](N)CN1CC(=O)N(c2cc(F)ccc2Cl)CC1(C)C)C(C)C.O=C(O)/C=C/C(=O)O : 2110

---

Molecular target: Renin (Macaca fascicularis)
Assay: Inhibition of renin in cynomolgus monkey plasma
Each entry below lists one item and its recorded IC50 value.
Give the value in nM but do not write nM after it.

Examples with answers:
CC(C)[C@H](C[C@H](O)[C@@H](N)CN1CC(=O)N(c2cccc(F)c2)CC1(C)C)C(=O)NCC(C)(C)C(N)=O: 23
COCCOc1ccccc1N1CC(C)(C)N(C[C@H](N)[C@@H](O)C[C@H](C(=O)NCC(C)(C)C(N)=O)C(C)C)CC1=O: 9.8
CC(C)[C@H](C[C@H](O)[C@@H](N)CN1CC(=O)N(c2ccccc2Cl)CC1(C)C)C(=O)NC1CCCCC1: 11
CC(C)[C@H](C[C@H](O)[C@@H](N)CN1CC(=O)N(c2cc(F)cc(F)c2)CC1(C)C)C(=O)NCC(C)(C)C(N)=O: 90
CC(C)[C@H](C[C@H](O)[C@@H](N)CN1CC(=O)N(c2cc(F)ccc2Cl)CC1(C)C)C(=O)NCC(C)(C)C(N)=O: 7

Query molecule follows.
Please fill in: IC50 reported for COc1cccc(N2CC(C)(C)N(C[C@H](N)[C@@H](O)C[C@H](C(=O)NCC(C)(C)C(N)=O)C(C)C)CC2=O)c1 = 58

---

Experiment: Oral bioavailability in cynomolgus monkey at 10 mg/kg
Assay type: ADME, organism-based, Macaca fascicularis
Settings: in vivo
endpoint: bioavailability (%)
Note: unit % is implicit; provide only the numeric part.

Memo: CCCCNC(=O)[C@@H](C[C@H](O)[C@@H](N)CN1CC(=O)N(c2cc(F)ccc2Cl)CC1(C)C)C(C)C.O=C(O)/C=C/C(=O)O , reported bioavailability: 18.5

---

Experiment: Volume of distribution at steady state in cynomolgus monkey at 1 mg/kg, iv
Format: ADME, organism-based, Macaca fascicularis
Parameters: dose 1 mg/kg, route intravenous
Conditions: in vivo, read-out: Vdss
endpoint: Vd (L/kg)
# output: bare number, implied unit L/kg

// Vd value for CCCCNC(=O)[C@@H](C[C@H](O)[C@@H](N)CN1CC(=O)N(c2cc(F)ccc2Cl)CC1(C)C)C(C)C.O=C(O)/C=C/C(=O)O : 16.3

---

Test: Metabolic stability in cynomolgus monkey liver microsomes assessed as compound remaining at 1 uM incubated with NADPH generating system measured after 30 mins
Format: ADME, Macaca fascicularis, Microsome
Details: read-out: Stability
endpoint: remaining at 0.5 h, 1 µM (%)
State the answer as a number, implicitly in %.

CC[C@H](C)CNC(=O)[C@@H](C[C@H](O)[C@@H](N)CN1CC(=O)N(c2ccccc2Cl)CC1(C)C)C(C)C: 8.4

Would you kindly look at the next entry?
Sample CC(C)[C@H](C[C@H](O)[C@@H](N)CN1CC(=O)N(c2ccccc2Cl)CC1(C)C)C(=O)NC1CCCCC1 ; remaining at 0.5 h, 1 µM observed: 17.5

---

Biological target: Renin (Homo sapiens, UniProt P00797)
Sequence (P00797 whole entry): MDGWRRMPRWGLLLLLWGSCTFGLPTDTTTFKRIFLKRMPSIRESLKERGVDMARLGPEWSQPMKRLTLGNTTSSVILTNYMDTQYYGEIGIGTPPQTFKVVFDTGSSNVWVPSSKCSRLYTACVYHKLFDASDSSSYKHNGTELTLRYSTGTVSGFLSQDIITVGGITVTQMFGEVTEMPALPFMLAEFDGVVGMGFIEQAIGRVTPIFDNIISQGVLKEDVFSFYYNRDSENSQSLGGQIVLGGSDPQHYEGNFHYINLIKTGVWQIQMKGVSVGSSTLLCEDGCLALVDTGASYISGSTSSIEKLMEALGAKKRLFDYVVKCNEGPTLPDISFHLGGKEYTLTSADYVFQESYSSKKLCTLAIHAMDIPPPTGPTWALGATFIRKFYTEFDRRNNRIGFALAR
Listed next: entries and their corresponding pIC50.
Here pIC50 is given on a logarithmic scale as minus log10 of the concentration in mol/L.

CC(C)[C@H](C[C@H](O)[C@@H](N)CN1CC(=O)N(c2ccccc2F)CC1(C)C)C(=O)NCC(C)(C)C(N)=O: 8.66
CC(C)[C@H](C[C@H](O)[C@@H](N)CN1CC(=O)N(c2ccccc2)CC1(C)C)C(=O)NCC(C)(C)C(N)=O: 8.51
CCCCNC(=O)[C@@H](C[C@H](O)[C@@H](N)CN1CC(=O)N(c2ccccc2Cl)CC1(C)C)C(C)C: 9.00
CC(C)[C@H](C[C@H](O)[C@@H](N)CN1CC(=O)N(c2ccccc2Cl)CC1(C)C)C(=O)NC1CCCCC1: 9.00

Param item: COc1ccccc1N1CC(C)(C)N(C[C@H](N)[C@@H](O)C[C@H](C(=O)NCC(C)(C)C(N)=O)C(C)C)CC1=O ; param system: Renin (Homo sapiens, UniProt P00797); output pIC50: 8.72

The observed pIC50 for COc1cccc(N2CC(C)(C)N(C[C@H](N)[C@@H](O)C[C@H](C(=O)NCC(C)(C)C(N)=O)C(C)C)CC2=O)c1 when tested with Renin (Homo sapiens, UniProt P00797) stands at 8.38

Response field pIC50 (Renin (Homo sapiens, UniProt P00797)) for item COc1ccc(Cl)c(N2CC(C)(C)N(C[C@H](N)[C@@H](O)C[C@H](C(=O)NCC(C)(C)C(N)=O)C(C)C)CC2=O)c1 : 8.62

Param item: COCCCOc1ccccc1N1CC(C)(C)N(CC(N)C(O)CC(C(=O)NCC(C)(C)C(N)=O)C(C)C)CC1=O (racemic) ; param system: Renin (Homo sapiens, UniProt P00797); output pIC50: 8.48

Given the compound COCCCOc1ccccc1N1CC(C)(C)N(C[C@H](N)[C@@H](O)C[C@H](C(=O)NCC(C)(C)C(N)=O)C(C)C)CC1=O and test system Renin (Homo sapiens, UniProt P00797), the measured pIC50 is 8.92

---

Assay: Clearance in cynomolgus monkey at 1 mg/kg, iv
Type: ADME, organism-based, Macaca fascicularis
Design: dose 1 mg/kg, route intravenous
Conditions: in vivo
endpoint: clearance (mL/min/kg)
The figure you give is taken to be in mL/min/kg; do not add the unit.

Recorded clearance (compound CCCCNC(=O)[C@@H](C[C@H](O)[C@@H](N)CN1CC(=O)N(c2cc(F)ccc2Cl)CC1(C)C)C(C)C.O=C(O)/C=C/C(=O)O ): 14.7

---

Assay: Half life in cynomolgus monkey at 1 mg/kg, iv
Assay type: ADME, organism-based, Macaca fascicularis
Parameters: dose 1 mg/kg, route intravenous
Conditions: in vivo
endpoint: half-life (min)
Note: unit min is implicit; provide only the numeric part.

# compound CCCCNC(=O)[C@@H](C[C@H](O)[C@@H](N)CN1CC(=O)N(c2cc(F)ccc2Cl)CC1(C)C)C(C)C.O=C(O)/C=C/C(=O)O ; its half-life = 648

---

# log10(IC50) annotations
Molecular target: Renin (Macaca fascicularis)
Sequence (Q6DLS0 whole entry): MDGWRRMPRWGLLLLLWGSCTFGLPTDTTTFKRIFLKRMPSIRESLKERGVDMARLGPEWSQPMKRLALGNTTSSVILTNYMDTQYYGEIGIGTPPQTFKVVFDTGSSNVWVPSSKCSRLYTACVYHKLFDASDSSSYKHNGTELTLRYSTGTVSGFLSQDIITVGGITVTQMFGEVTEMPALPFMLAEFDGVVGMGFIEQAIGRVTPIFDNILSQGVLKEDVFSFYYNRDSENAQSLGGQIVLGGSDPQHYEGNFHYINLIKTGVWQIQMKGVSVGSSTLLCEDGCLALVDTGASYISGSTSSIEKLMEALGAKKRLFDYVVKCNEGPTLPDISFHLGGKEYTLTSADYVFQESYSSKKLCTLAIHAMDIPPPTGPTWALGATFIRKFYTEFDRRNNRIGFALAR
Assay: Inhibition of renin in cynomolgus monkey plasma
On a log10 scale: recorded IC50, unit nM.

Reference set (5 entries):
CC(C)[C@H](C[C@H](O)[C@@H](N)CN1CC(=O)N(c2ccccc2)CC1(C)C)C(=O)NCC(C)(C)C(N)=O: 1.69
COCCCOc1cccc(N2CCN(CC(N)C(O)CC(C(=O)NCC(C)(C)C(N)=O)C(C)C)CC2=O)c1 (racemic): 3.48
COc1ccccc1N1CC(C)(C)N(C[C@H](N)[C@@H](O)C[C@H](C(=O)NCC(C)(C)C(N)=O)C(C)C)CC1=O: 1.28
CC(C)[C@H](C[C@H](O)[C@@H](N)CN1CC(=O)N(c2ccccc2F)CC1(C)C)C(=O)NCC(C)(C)C(N)=O: 1.48
CC(C)[C@H](C[C@H](O)[C@@H](N)CN1CC(=O)N(c2cc(F)ccc2Cl)CC1(C)C)C(=O)NC1CCCCC1: 0.70

Looking up COCOc1ccccc1N1CC(C)(C)N(C[C@H](N)[C@@H](O)C[C@H](C(=O)NCC(C)(C)C(N)=O)C(C)C)CC1=O , I see its log10(IC50) listed as 0.81

Value of measured log10(IC50) for the entry COCCCOc1ccccc1C1CCN(CC(N)C(O)CC(C(=O)NCC(C)(C)C(N)=O)C(C)C)CC1 (racemic) : 4.10

For record CC(C)[C@H](C[C@H](O)[C@@H](N)CN1CC(=O)N(c2ccccc2Cl)CC1(C)C)C(=O)NCC(C)(C)C(N)=O the listed log10(IC50) is 0.85

# compound CC[C@H](C)CNC(=O)[C@@H](C[C@H](O)[C@@H](N)CN1CC(=O)N(c2ccccc2Cl)CC1(C)C)C(C)C ; its log10(IC50) = 0.30
